# ASSAYED TARGET: HLA-A*02:06
# ASSAY NOTES: IEDB peptide-MHC binding, purified MHC/competitive/radioactivity; filed as Kd, often an IC50 or EC50 that approximates it; bounds were set here for any values at or beyond the usual limits of such assays
# CONDITION: source organism: Lassa virus Josiah
So I've got a bunch of sequences here, and I need their Kd values.
Report the figure in nM without appending any unit label.

// recorded Kd for `YLISIFLHLV` : 8.6

// recorded Kd for `SLYKGVYEL` : 394

// recorded Kd for `SIINHKFCNL` : 1010

----------
# ASSAYED TARGET: HLA-B*44:03
# ASSAY NOTES: IEDB peptide-MHC binding, purified MHC/competitive/radioactivity; filed as Kd, often an IC50 or EC50 that approximates it; bounds were set here for any values at or beyond the usual limits of such assays
# CONDITION: source organism: Dengue virus 2 Jamaica/1409/1983
So I've got a bunch of sequences here, and I need their Kd values.
Report the figure in nM without appending any unit label.

// recorded Kd for `SENEVKLTI` : 14.1

// recorded Kd for `TELKYSWKTW` : 23.9

// recorded Kd for `LEFFLIVLL` : 17600
